Tested on: human hepatocyte cell line (HepG2)
Assay: HepG2 cell inhibition assay (CCK-8 cell viability)
Format: cell-based
Details: 50% growth inhibition vs untreated control, 24 hours
Label Y when HepG2 cell TD50 >= 9 µg/mL; otherwise N.

Use the examples below as a reference point.
- smiles.str: "COC(=O)[C@H](C[S][Au]=[P](C)(C)c1ccccc1)NC(C)=O"
  qualitative.label: "N"
- smiles.str: "CC(C)[P](=[Au][S]c1nc2ccccc2[nH]1)(C(C)C)C(C)C"
  qualitative.label: "N"
- smiles.str: "COC(=O)[C@H](C[Se][Au]=[P](C(C)C)(C(C)C)C(C)C)NC(C)=O"
  qualitative.label: "Y"

Does HepG2 cell TD50 meet or surpass 9 µg/mL for COC(=O)[C@H](C[Se][Au]=[P](C)(c1ccccc1)c1ccccc1)NC(C)=O ? Y

Does HepG2 cell TD50 meet or surpass 9 µg/mL for C[P](C)(=[Au][S]c1nc2ccccc2[nH]1)c1ccccc1 ? N
